Test system: Enterococcus faecalis (VRE 1528 R10)
Experiment: agar diffusion antimicrobial assay
Assay type: cell-based
Conditions: Enterococcus faecalis VRE, agar diffusion
Attribute measured: antibacterial activity in words

| Molecule | Reported |
| --- | --- |
| O=C1C=CCCC(O)C2CC(=O)c3c(O)cc(cc3O2)OC2OC(CO1)C(O)C(O)C2O (stereo not shown) [Compound 1, Moniristenulide] | selective activity |
| COc1cc2occ(-c3ccccc3OC3OC(CO)C(O)C(O)C3O)c(=O)c2c(O)c1OC (stereo not shown) | selective activity |

* * *

Tested on: Bacillus subtilis (6633 B1)
Assay: agar diffusion antimicrobial assay
Type: cell-based
Details: Bacillus subtilis (6633 B1); 50 μL of 1 mg/mL in DMSO, 18 h; ciprofloxacin 5 µg/mL; read-out: Inhibition Zone of Test Microorganism
Attribute measured: zone of inhibition at 1000 µg/mL

Use the examples below as a reference point.
| Compound | zone of inhibition at 1000 µg/mL |
| --- | --- |
| O=C1CC(c2cccc(O)c2O)Oc2cc3c(c(O)c21)OCO3 (stereo not shown) | 13 mm |
| COc1cc2occ(-c3cccc(O)c3O)c(=O)c2c(O)c1OC | 13 mm |
| COc1c2c(cc3c1C1CC(O3)c3ccccc3O1)OCO2 (stereo not shown) | 12 mm |

Item under review: O=C1C[C@@H](c2cccc(O)c2O)Oc2cc(O)cc(O)c21 [Compound 3, (2S)-5,7,2′,3′-Tetrahydroxyflavanone] . Reported zone of inhibition at 1000 µg/mL?
12 mm
